Numbers sourced from patent US20020137929A1.

# Tested on: AMBEL (Ragweed, Common)
# test_details: Preemergence herbicidal evaluation
# Type: in vivo, Ambrosia artemisifolia
# measurement_context: rate 0.1250 kg/ha; rated 4-5 weeks after treatment
Listing: AMBEL preemergence herbicidal rating of selected molecules
Answer with a bare number; do not write a unit.

Record excerpt, results attached:
{"columns": ["molecule", "AMBEL preemergence herbicidal rating"],
 "data": [
  ["CN1C(=O)C(F)SC1=Nc1cc(N2C(=O)C3=C(CCCC3)C2=O)c(F)cc1Cl (stereo not shown)", 0.0],
  ["CCC1SC(=Nc2cc(-n3c(=O)cc(C(F)(F)F)n(C)c3=O)c(F)cc2Cl)N(C)C1=O (stereo not shown)", 4.7],
  ["CCOC(=O)CN1C(=O)C(CC)SC1=Nc1cc(-n2c(=O)cc(C(F)(F)F)n(C)c2=O)c(F)cc1Cl (stereo not shown)", 9.0]
]}

Please look up its AMBEL preemergence herbicidal rating: CCOC(=O)CN1C(=O)C(F)SC1=Nc1cc(-n2c(=O)cc(C(F)(F)F)n(C)c2=O)c(F)cc1Cl (stereo not shown)
6.5
